Hello, the source for this data is the supplement of paper PMC10567573, in case you need it.

B1: MFF (parent)
chain: MAEISRIQYEMEYTEGISQRMRVP

variants of: B1; experiment: protein stability index of a GFP-peptide fusion (GPS, HEK-293T) (PSI 1-6); higher = more stable; conditions: c terminus: a fixed tail appended;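 further: lentivirally expressed fusions sorted by FACS into six bins by GFP to DsRed ratio, PSI derived from sequencing read proportions per bin multiplied by bin number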

{"mutant.code": "R6W", "protein stability index": 1.95}
{"mutant.code": "Y9A", "protein stability index": 3.31}
{"mutant.code": "Q8A", "protein stability index": 2.31}
{"mutant.code": "E3W", "protein stability index": 1.57}
{"mutant.code": "M1Y", "protein stability index": 1.9}
{"mutant.code": "R20V", "protein stability index": 2.17}
{"mutant.code": "M11V", "protein stability index": 2.89}
{"mutant.code": "E3C", "protein stability index": 2.45}
{"mutant.code": "I17Y", "protein stability index": 2.62}
{"mutant.code": "A2P", "protein stability index": 3.33}
{"mutant.code": "G16Y", "protein stability index": 1.48}
{"mutant.code": "Q8T", "protein stability index": 2.38}
{"mutant.code": "E15F", "protein stability index": 2.17}
{"mutant.code": "R20L", "protein stability index": 2.1}
{"mutant.code": "Y13K", "protein stability index": 2.96}
{"mutant.code": "E10W", "protein stability index": 2.72}
{"mutant.code": "A2V", "protein stability index": 1.96}
{"mutant.code": "E10K", "protein stability index": 2.66}
{"mutant.code": "S5M", "protein stability index": 1.34}
{"mutant.code": "M1E", "protein stability index": 4.04}
{"mutant.code": "R6P", "protein stability index": 3.36}
{"mutant.code": "P24Y", "protein stability index": 1.85}
